Give ΔTm for every item shown.
Express the result in °C but write the number alone.

Form field, ΔTm with Casein kinase I isoform gamma-2 (Homo sapiens) (UniProt P78368), item `O=C1C(Cl)=C(N2C(=O)CCC2=O)C(=O)c2ccccc21` : 0.1

Form field, ΔTm with Casein kinase I isoform gamma-2 (Homo sapiens) (UniProt P78368), item `O=c1cc(-c2ccc(O)cc2)oc2cc(O)cc(O)c12` : 0.7

Form field, ΔTm with Casein kinase I isoform gamma-2 (Homo sapiens) (UniProt P78368), item `N#C/C(=C\c1ccc(O)c(O)c1)C(=O)Nc1ccccc1` : 1.2

Form field, ΔTm with Casein kinase I isoform gamma-2 (Homo sapiens) (UniProt P78368), item `O=S(=O)(c1cccc2c(Cl)cccc12)N1CCCNCC1` : 0.3

Form field, ΔTm with Casein kinase I isoform gamma-2 (Homo sapiens) (UniProt P78368), item `COc1nccc(-c2c(-c3ccc(F)cc3)ncn2[C@H]2CC[C@H](O)CC2)n1` : 1

Form field, ΔTm with Casein kinase I isoform gamma-2 (Homo sapiens) (UniProt P78368), item `OC[C@H]1O[C@@H](n2cnc3cc(Cl)c(Cl)cc32)[C@H](O)[C@@H]1O` : 0.6

Form field, ΔTm with Casein kinase I isoform gamma-2 (Homo sapiens) (UniProt P78368), item C[S+]([O-])c1ccc(CSc2nc(-c3ccc(F)cc3)c(-c3ccncc3)[nH]2)cc1 (stereo unspecified) : 0.9

Form field, ΔTm with Casein kinase I isoform gamma-2 (Homo sapiens) (UniProt P78368), item `COc1ccc(S(=O)(=O)N(CCO)c2ccccc2CN(C)C/C=C/c2ccc(Cl)cc2)cc1` : 0.3

Form field, ΔTm with Casein kinase I isoform gamma-2 (Homo sapiens) (UniProt P78368), item `O=C1NC(=O)C(c2c[nH]c3ccccc23)=C1c1c[nH]c2ccccc12` : 0.7

Form field, ΔTm with Casein kinase I isoform gamma-2 (Homo sapiens) (UniProt P78368), item O=C(O)c1cc(N(Cc2ccccc2O)Cc2cc(O)ccc2O)ccc1O [LAVENDUSTIN A] : 0.6

Form field, ΔTm with Casein kinase I isoform gamma-2 (Homo sapiens) (UniProt P78368), item `Cc1cncc2cccc(S(=O)(=O)N3CCCNC[C@@H]3C)c12` : 0.6

Form field, ΔTm with Casein kinase I isoform gamma-2 (Homo sapiens) (UniProt P78368), item O=c1c2ccccc2[nH]c(=S)n1CCN1CCC(=C(c2ccc(F)cc2)c2ccc(F)cc2)CC1 [DIACYLGLYCEROL KINASE INHIBITOR II] : 0.5

Form field, ΔTm with Casein kinase I isoform gamma-2 (Homo sapiens) (UniProt P78368), item `N#C/C(=C\c1ccc(O)c(O)c1)C(=O)NCc1ccccc1` : 0.7

Form field, ΔTm with Casein kinase I isoform gamma-2 (Homo sapiens) (UniProt P78368), item `O=C1Nc2ccccc2/C1=C/c1cnc[nH]1` : 1.6

Form field, ΔTm with Casein kinase I isoform gamma-2 (Homo sapiens) (UniProt P78368), item `CC(C)(C)c1nc2c3ccc(F)cc3c3c(=O)[nH]ccc3c2[nH]1` : 0.7

Form field, ΔTm with Casein kinase I isoform gamma-2 (Homo sapiens) (UniProt P78368), item `O=C(O)/C=C/c1cc(CO)ccc1CO` : 0.4

Form field, ΔTm with Casein kinase I isoform gamma-2 (Homo sapiens) (UniProt P78368), item `O=[N+]([O-])c1ccc(-c2nc(-c3ccc(F)cc3)c(-c3ccncc3)[nH]2)cc1` : 1.7

Form field, ΔTm with Casein kinase I isoform gamma-2 (Homo sapiens) (UniProt P78368), item `Nc1cc2ncnc(Nc3cccc(Br)c3)c2cc1N` : 0.4

Form field, ΔTm with Casein kinase I isoform gamma-2 (Homo sapiens) (UniProt P78368), item CN(C)CCCn1cc(C2=C(c3c[nH]c4ccccc34)C(=O)NC2=O)c2ccccc21 [GF-109203] : 0.5

Form field, ΔTm with Casein kinase I isoform gamma-2 (Homo sapiens) (UniProt P78368), item N#CCCc1ccc2c(c1)-c1[nH]c3ccc([N+](=O)[O-])cc3c1CC(=O)N2 [ALSTERPAULLONE 2] : 2

Form field, ΔTm with Casein kinase I isoform gamma-2 (Homo sapiens) (UniProt P78368), item `Cc1ccc(NC2=CC(=O)c3sc(C)nc3C2=O)cc1` : 0
